Quick reference for EC50 among some molecules
# System: HCV replicon 1A
# Test name: Cell-based HCV replicon assay (Replicon Assay A), replicon 1A
# Design: species or system Hepatitis C virus
# Test settings: Hepatitis C virus, 72 h, replicon RNA by real time PCR, day 3
Assay readout: EC50 (pM)

>>> result_number("COC(=O)NC(C(=O)N1[C@@H]2C[C@@H]2C[C@H]1c1ncc(-c2ccc3c(c2)cc2n3C(c3ccc4c(c3)OCCC4)Oc3cc(-c4cnc([C@@H]5CCCN5C(=O)[C@@H](NC(=O)OC)C(C)C)[nH]4)cc(F)c3-2)[nH]1)C1C[C@@H](C)O[C@@H](C)C1 (single isomer, unassigned)")
1.2
>>> result_number("COC(=O)NC(C(=O)N1CCC[C@H]1c1ncc(-c2ccc3c(c2)cc2n3C(c3ccc4c(c3)OCCC4)Oc3cc(-c4cnc([C@@H]5CCCN5C(=O)[C@@H](NC(=O)OC)C(C)C)[nH]4)cc(F)c3-2)[nH]1)C(C)(C)F (single isomer, unassigned)")
2.2
>>> result_number("COC(=O)N[C@H](C(=O)N1CCC[C@H]1c1ncc(-c2cc(F)c3c(c2)OC(c2ccc4c(c2)CCCO4)n2c-3cc3cc(-c4cnc([C@@H]5CCCN5C(=O)[C@@H](NC(=O)OC)C5CCOCC5)[nH]4)ccc32)[nH]1)C(C)C (single isomer, unassigned)")
3.4
>>> result_number("COC(=O)NC(C(=O)N1CCC[C@H]1c1ncc(-c2ccc3c(c2)cc2n3C(c3ccc4c(c3)OCCC4)Oc3cc(-c4cnc([C@@H]5CCCN5C(=O)[C@@H](NC(=O)OC)C(C)C)[nH]4)cc(F)c3-2)[nH]1)C1CCOC(C)(C)C1 (single isomer, unassigned)")
1.7
